Data origin: patent US5364885A

Parameter Hamster Flank Organ Hair Mass, Treated (± SEM): see the listing below.
- System: hamster flank organ hair growth
- Protocol Notes: Inhibition of hair growth: hamster flank organ hair mass after thirteen topical applications
- Format: in vivo, male intact Golden Syrian hamsters
- Particulars: 10% by weight, 10-25 μl once a day, 13 applications, pH 7-8
Structures can show the parent of a compound that is named as a salt.

*Q* Under hamster flank organ hair growth: report Hamster Flank Organ Hair Mass, Treated (± SEM) of CC(C)(CO)[C@@H](O)C(=O)NCCC(=O)O [PTA, DPantothenic acid hemicalcium salt] .
*A* .424 ± .11 mg

*Q* Under hamster flank organ hair growth: report Hamster Flank Organ Hair Mass, Treated (± SEM) of CC(C)(CO)[C@@H](O)C(=O)NCCCO .
*A* 1.095 ± .32 mg

*Q* Under hamster flank organ hair growth: report Hamster Flank Organ Hair Mass, Treated (± SEM) of CC(C)(CO)[C@H](O)C(=O)NCCC(=O)[O-].[Na+] [PTAss, D-Pantothenic acid monosodium salt] .
*A* .364 ± .10 mg

Continuing:
*Q* Under hamster flank organ hair growth: report Hamster Flank Organ Hair Mass, Treated (± SEM) of CC(C)(CO)C(O)C(=O)NCCCO (racemic) .
*A* 1.490 ± .30 mg
